Can you tell me melting point for the items I'm about to list?

> print(dat)
                                   compound            val
1  CCOC(=O)c1cccc(-c2ccc(OCc3ccccc3)cc2)n1 [Example 9]  143 to 145 °C

Give melting point for each of the items listed below.
1. CCOc1ccc(-c2cccc(C(=O)OCc3cccnc3)n2)cc1 [Example 193]
2. CCOc1ccc(-c2cccc(C(=O)OCc3ccccc3)n2)cc1 [Example 22]

Ans.
1. 107 to 110 °C
2. 80 to 81 °C

Fill in melting point for each of the 6 compounds listed.
1. CCOC(=O)c1cccc(-c2ccc(C#N)cc2)n1 [Example 88]
2. CCOc1ccc(-c2ccc(OC(C)=O)c(C(=O)OC)n2)cc1 [NG-477]
3. CCOc1ccc(-c2cccc(C(=O)OCc3ccccn3)n2)cc1 [Example 192]
4. CC(C)OC(=O)c1cccc(C#Cc2ccccc2)n1 [Example 79]
5. CCOc1ccc(-c2cccc(C(F)(F)F)n2)cc1 [NG-622]
6. COc1cc(C(=O)OC(C)C)nc(-c2ccc(-c3cccnc3)cc2)c1 [Example 65]

Ans.
1. 108 to 109 °C
2. 120 to 123 °C
3. 124 to 127 °C
4. 85 to 86 °C
5. 100 to 101 °C
6. 118 to 121 °C

Qu. Note melting point for the compound shown: CC(C)OC(=O)c1cccc(-c2ccc(N(C)C)cc2)n1 [Example 17]
Ans. 134 to 140 °C
